Source: ChEMBL document CHEMBL1201862

Test system: SF-539
Test Protocol: NCI tumour cell line growth inhibition, 48 h
The source made the active and inactive calls. No stated cut-off is given here; in the data, active = GI50 up to about 1.1 µM and inactive = higher.
Quick reference: GI50 of the listed items.

Solved cases (3 shown):
INSERT INTO assay_data (molecule, obs_value) VALUES
  ('Nc1nc(N)c(-c2ccccc2)c(C(=O)Nc2nccs2)n1', '> 100 µM (inactive)'),
  ('COC(=O)c1nsc(OC)c1Cl', '> 100 µM (inactive)'),
  ('COc1cc(C(C)c2cc3c(cc2OCCNC(=O)COc2cc4c(cc2C(C)c2cc(OC)c(OC)c(OC)c2)OCO4)OCO3)cc(OC)c1OC (stereo not drawn)', '> 100 µM (inactive)');

input: Could you tell me which GI50 is on file for COc1ccc(C(=O)OC2C=COC(C)C2OC(=O)c2ccc(OC)cc2)cc1 (stereo not drawn) ?
output: 18 µM (inactive)

input: Okay, and CC1=CCCC2C1(C)CCC(C)C2(C)Cc1cc(O)ccc1O (stereo not drawn) ?
output: 8.34 µM (inactive)

input: Okay, and Cc1ccc(C)c(NC(=O)C(=O)CC(=O)c2cccc3ccccc23)c1 ?
output: > 100 µM (inactive)

input: Okay, and O=c1c2ccccc2[nH]c2cc(O)cc(O)c12 ?
output: 41.5 µM (inactive)

input: Okay, and O=[N+]([O-])c1ccc(C2N3CCCCC3[C@@H]3c4[nH]c5ccccc5c4CCN23)cc1 (stereo partly drawn) ?
output: 13.3 µM (inactive)

input: Okay, and Cn1c(-c2ccc(C=O)o2)ccc1-c1ccc(C=O)o1 ?
output: 34.5 µM (inactive)

input: Okay, and CCOC(=O)c1ccc(NC(NC(=O)CC)(C(F)(F)F)C(F)(F)F)cc1 ?
output: > 100 µM (inactive)

input: Okay, and Cc1ccc(/N=N/c2c(C)nn(-c3ccccc3)c2-c2ccccc2)c(Br)c1 ?
output: 20.2 µM (inactive)

input: Okay, and O=C(Nc1ccccc1)c1ccc(Cl)c([N+](=O)[O-])c1 ?
output: 21.4 µM (inactive)

input: Okay, and N#C/C(=C1\SC(C(N)=O)=C(N)N1c1ccccc1)c1nc2ccccc2[nH]1 ?
output: 75.9 µM (inactive)

###

Tested on: SK-MEL-2
Test Protocol: NCI tumour cell line growth inhibition, 48 h
Active and inactive are the calls of the source. Rule as the data show it: active = GI50 up to about 1.1 µM and inactive = higher.
Outcome (select one): Y for active, N for inactive

Look over these answered cases.
INSERT INTO results (compound, class_assignment) VALUES
  ('CC(Cl)CC(=O)OCC1CCCN2CCCCC12 (stereo not given)', 'N'),
  ('CC1=C(/C(C)=N/NC(=O)C(N)=O)Sc2ccccc2N1', 'N'),
  ('CCOC(=O)c1csc(NC(=O)CN(C)C)n1', 'N'),
  ('COC(=O)C12C(=O)CC3CCC1C32C(=O)OC (stereo not given)', 'N'),
  ('CCCCOC(=O)CN1C(=O)c2ccccc2C1=O', 'N');

input: What classification did CC(=O)O[C@H]1C(=O)[C@@]2(C)[C@H]([C@H](OC(=O)c3ccccc3)[C@]3(O)C[C@H](OC(=O)[C@H](O)[C@@H](NC(=O)c4ccco4)c4ccccc4)C(C)=C1C3(C)C)[C@]1(OC(C)=O)CO[C@@H]1C[C@@H]2O end up with in this test?
output: Y

input: Okay, and NC(CCP(=O)(O)O)C(=O)O (stereo not given) ?
output: N

input: Okay, and O=[N+]([O-])c1ccc(C2N3CCCCC3[C@@H]3c4[nH]c5ccccc5c4CCN23)cc1 (stereo not given in full) ?
output: N

input: Okay, and CCC(=O)OC[n+]1ccc2c(C)c3[nH]c4ccc(OC)cc4c3c(C)c2c1 ?
output: Y

input: Okay, and COc1cc2oc(=O)cc(C)c2cc1OC ?
output: N
